- System: OVCAR-5 ovarian
- measurement description: NCI-60 one-dose screen, 48 h (100 = growth as untreated, 0 = no growth, -100 = all killed)
- condition summary: 10 µM unless noted
This is part of a sample that, as a whole, favours compounds with a hit. Of some 83,000 tested, about 20% had one in any assay.
quantity kind: growth (%)
The answer is to be given in %; state only the numeric part.

Q) For the molecule S=C(S)Oc1cccc2cccnc12 , give its reported growth.
A) 108

Q) Quickly give me recorded growth for COc1ccc(-c2nc3ccccc3n3cccc23)cc1
A) 113

Q) For the molecule Cc1ccc(Nc2cc(Cl)c([N+](=O)[O-])cc2[N+](=O)[O-])cc1 , report growth.
A) 46.3

Q) // fetch growth given entry CS(=O)(=O)c1ccc(C(=O)N2N=C(c3ccccc3)CC2c2ccc3c(c2)OCO3)cc1 (configuration not stated)
A) 100

Q) Specify reported growth for the molecule shown: CS(=O)(=O)c1ccc(C(=O)N/N=C/c2cccc3ccccc23)cc1
A) 109

Q) Return reported growth. Input molecule: COc1ccc(/C=C(\C#N)c2cc(OC)c(OC)c(OC)c2)cc1
A) 38.6

Q) Give me measured growth, please, for this molecule: COc1cc(OC)c(C(=O)/C=C/c2cccc(OC(C)=O)c2)cc1CC=C(C)C
A) 107

Q) For the molecule CCc1onc(-c2ccc(OC)cc2)c1-c1ccccc1OCCN(CC)CC , report growth.
A) 91.5

Q) Entry Oc1ccccc1-c1nnc(COc2ccc(Cl)cc2Cl)o1 needs its growth filled in; supply it.
A) 89.1

Q) Please report growth for the following molecule: CC1=C(O)C(=O)CC1
A) 112

Q) Look up and state reported growth for CC(C)c1cccc(C#N)c1
A) 112

Q) Give reported growth value for CN(C)c1ccc(C2(Cl)c3ccccc3N(C)c3ccccc32)cc1
A) 91.7

Q) // Input: CN(C)N1C(=O)c2c(Cl)c(Cl)c(Cl)c(Cl)c2C1=O . Output its growth only.
A) 115

Q) Kindly indicate its recorded growth. Item: CNCCCn1c2c(c3ccc(Cl)cc3c1=O)C(=O)c1cc(OC)cnc1-2
A) 91.9

Q) // fetch growth given entry COc1ccccc1CNCCCN1C(=O)c2ccc3c4c(ccc(c24)C1=O)C(=O)N(CCCOCCCCOCCCN)C3=O
A) -55.9

Q) For the molecule COc1cnc2c(c1)C(=O)c1c-2n(CCCNC(C)C)c(=O)c2cc(Cl)ccc12 , report growth.
A) -56.1

Q) Tell me its growth given Cc1ccccc1NC(=O)c1sc2nc3c(cc2c1N)C(=O)CCC3 as the entry.
A) 80.8

* * *

- Tested on: HCC-2998 colon
- measurement description: NCI-60 one-dose screen, 48 h
- condition summary: 10 µM unless noted
This is part of a sample that, as a whole, favours compounds with a hit. Of some 83,000 tested, about 20% had one in any assay. Active and inactive are the calls of the source. Rule for the calls: active = growth percent below 10; inactive = the rest.
Answer with one of the outcomes given here: active, inactive

Q) Query: recorded result category for O=C(Nc1ccc(Cl)cc1)c1cc(-c2ccc(Cl)cc2)c2sc(=O)[nH]c2n1 in this test
A) inactive

Q) What call does the record list for COc1cccc(-c2nc3sccn3c2-c2ccnc(NCCN3CCCNS3(=O)=O)n2)c1 ?
A) inactive

Q) Fill in: this test's call for CCCCCCCCCCCCCCCCCC(=O)[O][Sn]([CH2]CCC)([CH2]CCC)[CH2]CCC is ___
A) active

Q) // param item: CCOC(=O)c1ccc2c(c1)nc(-c1ccc(Cl)cc1)n2-c1cc(C(C)(C)C)[nH]n1 ; yields the recorded call
A) inactive

Q) Could you check what this test reported for CSC1=N/C(=C\c2cccc(OCc3ccc(Cl)cc3)c2)C(=O)N1 ?
A) inactive

Q) Which outcome did this test record for the compound O=C(CSc1nnc(Cc2ccccc2Nc2c(Cl)cccc2Cl)n1-c1ccccc1)N1N=C(c2ccc3ccccc3c2)CC1c1ccc(Cl)cc1 (stereo unspecified) ?
A) inactive
